Test system: T-cell response of HIV-1 infected individuals
Test: Mapping of Tat- and Nef-specific T-cell responses to single VOPSD peptides in cohorts of HIV-1 infected individuals (Elite Controllers)
Assay type: cell-based, human
Conditions: Elite Controllers (EC)
Recorded individuals recognizing the peptide for the following sequences

Guide cases for individuals recognizing the peptide, answers given:
[[record]]
biopolymer_sequence = "VLEWRFDSRLAFHHVAREL [peptide 5.29]"
reported = "7/13"

[[record]]
biopolymer_sequence = "QVCFITKALGISYGR [peptide 2.6]"
reported = "7/13"

[[record]]
biopolymer_sequence = "LEPWKHPGSQPKTACTNCY [peptide 2.2]"
reported = "5/9"


Lab note: next sequence to report on.
Query for T-cell response of HIV-1 infected individuals: what individuals recognizing the peptide does the record show for KKCCFHCQVCFITKALGI [peptide 2.5] ? 4/13
